# experimental-system: αvβ3 integrin (Homo sapiens, UniProt P05106+P06756)
# Sequence (P06756 31-889 limits assumed): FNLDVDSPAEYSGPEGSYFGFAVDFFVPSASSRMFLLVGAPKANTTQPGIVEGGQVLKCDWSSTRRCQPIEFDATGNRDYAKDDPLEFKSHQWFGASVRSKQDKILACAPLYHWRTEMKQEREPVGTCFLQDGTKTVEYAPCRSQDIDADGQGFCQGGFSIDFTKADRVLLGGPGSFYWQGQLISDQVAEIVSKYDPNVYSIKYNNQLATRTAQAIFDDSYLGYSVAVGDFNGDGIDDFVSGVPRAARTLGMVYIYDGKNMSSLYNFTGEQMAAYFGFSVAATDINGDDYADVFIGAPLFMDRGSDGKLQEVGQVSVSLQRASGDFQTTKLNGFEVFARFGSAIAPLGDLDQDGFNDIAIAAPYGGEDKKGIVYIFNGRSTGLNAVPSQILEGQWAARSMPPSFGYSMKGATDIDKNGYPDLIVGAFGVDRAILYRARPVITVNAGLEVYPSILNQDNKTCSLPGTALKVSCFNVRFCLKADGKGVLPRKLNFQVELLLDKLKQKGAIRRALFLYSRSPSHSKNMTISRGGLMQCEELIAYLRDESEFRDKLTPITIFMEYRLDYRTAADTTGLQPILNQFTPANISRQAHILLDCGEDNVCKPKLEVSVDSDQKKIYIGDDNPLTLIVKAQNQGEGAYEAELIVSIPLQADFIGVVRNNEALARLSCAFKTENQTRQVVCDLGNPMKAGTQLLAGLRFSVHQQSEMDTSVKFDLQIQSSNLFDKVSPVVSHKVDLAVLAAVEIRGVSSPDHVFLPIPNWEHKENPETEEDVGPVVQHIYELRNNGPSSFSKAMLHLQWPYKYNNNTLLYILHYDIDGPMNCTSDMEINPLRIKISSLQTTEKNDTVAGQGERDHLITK
# Sequence (P06756 891-1048 partner limits assumed): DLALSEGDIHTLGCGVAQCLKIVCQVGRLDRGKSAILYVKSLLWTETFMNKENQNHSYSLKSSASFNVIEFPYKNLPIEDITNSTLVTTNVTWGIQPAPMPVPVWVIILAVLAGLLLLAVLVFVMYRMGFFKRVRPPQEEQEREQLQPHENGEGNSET
# Sequence (P05106 27-788): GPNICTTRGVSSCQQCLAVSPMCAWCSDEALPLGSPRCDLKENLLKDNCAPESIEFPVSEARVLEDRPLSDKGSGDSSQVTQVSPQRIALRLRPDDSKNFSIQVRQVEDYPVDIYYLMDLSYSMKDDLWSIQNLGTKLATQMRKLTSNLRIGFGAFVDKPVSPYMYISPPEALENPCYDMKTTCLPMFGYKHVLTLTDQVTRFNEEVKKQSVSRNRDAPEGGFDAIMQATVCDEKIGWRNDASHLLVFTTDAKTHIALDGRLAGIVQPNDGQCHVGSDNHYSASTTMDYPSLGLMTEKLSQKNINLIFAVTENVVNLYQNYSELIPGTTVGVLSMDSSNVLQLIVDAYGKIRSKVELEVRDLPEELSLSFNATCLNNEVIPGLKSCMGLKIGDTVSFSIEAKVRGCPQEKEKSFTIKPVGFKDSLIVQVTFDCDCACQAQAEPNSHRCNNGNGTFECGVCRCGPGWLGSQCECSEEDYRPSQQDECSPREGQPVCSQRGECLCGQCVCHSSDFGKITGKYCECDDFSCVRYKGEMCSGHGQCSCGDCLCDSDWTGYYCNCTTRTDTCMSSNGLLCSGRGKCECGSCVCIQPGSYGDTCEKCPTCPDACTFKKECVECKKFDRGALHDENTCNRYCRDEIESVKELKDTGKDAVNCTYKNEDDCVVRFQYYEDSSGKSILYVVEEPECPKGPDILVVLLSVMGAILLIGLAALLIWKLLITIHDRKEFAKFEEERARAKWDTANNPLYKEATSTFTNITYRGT
# assay-procedure: Assay for the inhibition of αvβ3 integrin binding (vitronectin as ligand)
# Design: purchased Chemicon International, Inc., USA
# recorded-conditions: inhibition of specific binding of biotinylated human vitronectin to immobilized αvβ3 integrin
Response field label takes 1 when IC50 is strictly below 0.1 nM and -1 in all other cases.

Examples with answers:
* COCCOC(=O)N[C@@H](CNC(=O)C1CCN(c2cccc(NC3=NCCCN3)c2)CC1)C(=O)O [Ex. 94] | -1
* Cc1cc(N2CCC(C(=O)NC[C@H](NC(=O)OCc3ccccc3)C(=O)O)CC2)nc(NC2=NCCCN2)n1 [Ex. 150] | 1
* CCCCCCCCCCOC(=O)N[C@@H](CCC(=O)N1CCN(c2cccc(NC3=NCC(C)CN3)c2)CC1)C(=O)O (stereo partly drawn) [Ex. 135] | -1
* C=CCOC(=O)N[C@@H](CNC(=O)C1CCN(c2cccc(NC3=NCCCN3)c2)CC1)C(=O)O [Ex. 96] | 1

Could you please tell me whether IC50 recorded for CCCCCCOC(=O)N[C@@H](CCC(=O)N1CCN(c2cccc(NC3=NCC(O)CN3)c2)CC1)C(=O)O (stereo partly drawn) [Ex. 131] is less than 0.1 nM? -1
